test.target: T1, human CD28 (human, UniProt P10747 19-220)
T1 construct: whole, on cells; Jurkat/IL2 reporter cells, which endogenously express CD28
assay.summary: flow cytometry, Jurkat/IL2 reporter cells (endogenous CD28), 33.3 nM Fc fusion, PE anti-human Fc
readout.type: MFI at 33.3 nM (MFI)
Provide only the numeric value, understood in MFI.

binder: variant CD80 IgV-Fc (inert) H18V/A26D/E35D/M47V/V68M/A71G/D90G (Fc fusion, not shown: inert human IgG1 Fc) VIHVTKEVKEVATLSCGVNVSVEELDQTRIYWQKDKKMVLTMMSGDVNIWPEYKNRTIFDITNNLSIMILGLRPSDEGTYECVVLKYEKGAFKREHLAEVTLSVKAD
readout.value: 6250
//
binder: variant CD80 IgV-Fc (inert) H18V/A26P/E35D/M47L/V68M/A71G (Fc fusion, not shown: inert human IgG1 Fc) VIHVTKEVKEVATLSCGVNVSVEELPQTRIYWQKDKKMVLTMMSGDLNIWPEYKNRTIFDITNNLSIMILGLRPSDEGTYECVVLKYEKDAFKREHLAEVTLSVKAD
readout.value: 2450
//
binder: variant CD80 IgV-Fc (inert) H18C/A26P/E35D/M47L/V68M/A71G (Fc fusion, not shown: inert human IgG1 Fc) VIHVTKEVKEVATLSCGCNVSVEELPQTRIYWQKDKKMVLTMMSGDLNIWPEYKNRTIFDITNNLSIMILGLRPSDEGTYECVVLKYEKDAFKREHLAEVTLSVKAD
readout.value: 1910

Input variant CD80 IgV-Fc (inert) H18L/E35D/M47V/V68M/A71G/D90G (Fc fusion, not shown: inert human IgG1 Fc) VIHVTKEVKEVATLSCGLNVSVEELAQTRIYWQKDKKMVLTMMSGDVNIWPEYKNRTIFDITNNLSIMILGLRPSDEGTYECVVLKYEKGAFKREHLAEVTLSVKAD . Output MFI at 33.3 nM: 6350
